System: PC-3
Protocol details: Growth inhibition of human PC3 cells at 80 uM after 48 hrs by MTT assay relative to control
Assay type: functional
Recorded conditions: PC-3, 48 h, read-out: GI
Assign Yes whenever inhibition of growth at 80 µM does not fall below 20%; assign No whenever it does.

Field: example entries. Status: answers known.
[[record]]
molecule_smiles = "C[C@]12CCC(=O)O[C@@H]1CC[C@@H]1[C@@H]2CC[C@]2(C)[C@@H](C(=O)N(Cc3ccccc3)Cc3ccccc3)CC[C@@H]12"
assigned_class = "No"

[[record]]
molecule_smiles = "Cc1ccc(NC(=O)[C@H]2CC[C@H]3[C@@H]4CC[C@H]5OC(=O)CC[C@]5(C)[C@H]4CC[C@]23C)cc1"
assigned_class = "No"

[[record]]
molecule_smiles = "CCCCN(CCCC)C(=O)[C@H]1CC[C@H]2[C@@H]3CC[C@H]4OC(=O)CC[C@]4(C)[C@H]3CC[C@]12C"
assigned_class = "Yes"

[[record]]
molecule_smiles = "C[C@]12CCC(=O)O[C@@H]1CC[C@@H]1[C@@H]2CC[C@]2(C)[C@@H](C(=O)N3CCCCC3)CC[C@@H]12"
assigned_class = "Yes"

[[record]]
molecule_smiles = "C[C@]12CCC(=O)O[C@@H]1CC[C@@H]1[C@@H]2CC[C@]2(C)[C@@H](C(=O)N(C3CCCCC3)C3CCCCC3)CC[C@@H]12"
assigned_class = "Yes"


Note: attention shifts to another entry.
Q. Does inhibition of growth at 80 µM meet or surpass 20% for "C[C@]12CCC(=O)O[C@@H]1CC[C@@H]1[C@@H]2CC[C@]2(C)[C@@H](C(=O)N(c3ccccc3)c3ccccc3)CC[C@@H]12" ?
A. Yes

----------
The following molecules are shown together with reported AUC(0-inf) values.
Protocol details: AUC (0 to infinity) in Sprague-Dawley rat at 0.2 mg/kg, po by LC-MS/MS analysis
Assay type: ADME, organism-based
Design: dose 0.2 mg/kg, route oral, time infinity
Recorded conditions: in vivo

[[record]]
molecule = "Cc1ccc(NC(=O)[C@H]2CC[C@H]3[C@@H]4CC[C@H]5OC(=O)CC[C@]5(C)[C@H]4CC[C@]23C)cc1"
test_value = "54.1 ng·h/mL"


Next item in the queue.
// field: AUC(0-inf); key: CC(C)(C)NC(=O)[C@H]1CC[C@H]2[C@@H]3CC[C@H]4NC(=O)C=C[C@]4(C)[C@H]3CC[C@]12C [FINASTERIDE] ; value = 23.8 ng·h/mL

----------
inhibition overview
Test target: Androgen receptor (Homo sapiens)
Protocol details: Inhibition of recombinant human His-tagged/GST-fused androgen receptor LBD expressed in baculovirus expression system at 50 uM measured after 1.5 hrs by fluorescence polarization assay relative to control
Respond with the figure and its unit, in that order.

Illustrative cases are given below, each with its answer.
[[record]]
molecule_smiles = "C[C@]12CCC(=O)O[C@@H]1CC[C@@H]1[C@@H]2CC[C@]2(C)[C@@H](C(=O)Nc3ccccc3)CC[C@@H]12"
test_value = "7.09%"

[[record]]
molecule_smiles = "Cc1ccc(NC(=O)[C@H]2CC[C@H]3[C@@H]4CC[C@H]5OC(=O)CC[C@]5(C)[C@H]4CC[C@]23C)cc1"
test_value = "55.5%"


Query compound follows.
Recorded inhibition for "CCCCN(CCCC)C(=O)[C@H]1CC[C@H]2[C@@H]3CC[C@H]4OC(=O)CC[C@]4(C)[C@H]3CC[C@]12C" on Androgen receptor (Homo sapiens) was 11.8%
